# PROCEDURE TEXT: Pharmacokinetic study in SD male rats
# Type: in vivo, rat
# RUN CONDITIONS: Sprague-Dawley, rat, plasma, oral, 10 mg/kg, n = 5, Table S3
READOUT TYPE: Tmax (h)
The answer is to be given in h; state only the numeric part.

Consider CCOc1ccc(-n2c(SCC(=O)Nc3ccc(OC)c(OC)c3)nc3sc4c(c3c2=O)CCN(C(C)=O)C4)cc1 . Its measured Tmax is 2.2

====

# PROCEDURE TEXT: Pharmacokinetic study in SD male rats
# Type: in vivo, rat
# RUN CONDITIONS: male, Sprague-Dawley, rat, plasma, po, 10 mg/kg, oral, n = 5, Table S3, read-out: Terminal half-life
READOUT TYPE: half-life (h)
Hi! Could you send only the number? It should be in h, unit omitted.

half-life in this record for CCOc1ccc(-n2c(SCC(=O)Nc3ccc(OC)c(OC)c3)nc3sc4c(c3c2=O)CCN(C(C)=O)C4)cc1 : 2.35

Each recorded value in this set is attributed to paper PMC7996082.
